Target: VIM-1 (Pseudomonas aeruginosa (strain ATCC 15692 / DSM 22644 / CIP 104116 / JCM 14847 / LMG 12228 / 1C / PRS 101 / PAO1), UniProt A0A0F7KYQ8)
Test: Enzyme activity: determination of IC50, fluorescence assay with CCF2-FA substrate (VIM-1)
Assay type: biochemical
Details: VIM-1 enzyme, CCF2-FA substrate; read-out: VIM-1 IC50
This listing pairs compounds with measured IC50.
Dear colleague, please return just the value in nM, with no unit written.

Here are 4 compounds together with their reported answers.
>>> recorded_measurement("NS(=O)(=O)c1cccc(-c2cccc3c2OCC3=O)c1-c1nn[nH]n1")
19.7
>>> recorded_measurement("NS(=O)(=O)c1c(C(F)(F)F)ccc([C@H]2CC[C@H](NC3CCC4(CCNCC4)CC3)CC2)c1-c1nnn[nH]1")
6.43
>>> recorded_measurement("NS(=O)(=O)c1c(C(F)(F)F)ccc(-c2cccc3c[n+]([O-])ccc23)c1-c1nn[nH]n1")
0.277
>>> recorded_measurement("NC[C@H]1CC[C@H](c2ccc(C(F)(F)F)c(S(N)(=O)=O)c2-c2nnn[nH]2)CC1")
0.516

Form field IC50, entry "NS(=O)(=O)c1c(CC2CCNCC2)ccc(-c2ccc(C3CN(CCO)C3)cc2)c1-c1nn[nH]n1" : 45

Form field IC50, entry "NCc1ncc(CCc2ccc(C(F)(F)F)c(S(N)(=O)=O)c2-c2nn[nH]n2)cc1N" : 1.18

Form field IC50, entry Nc1nc2c(-c3ccc(CCC4CCC(N)CC4)c(S(N)(=O)=O)c3-c3nn[nH]n3)cccc2s1 (centres unmarked) : 5.11

Form field IC50, entry "N[C@@]1(c2ccc(-c3ccc(C(F)(F)F)c(S(N)(=O)=O)c3-c3nn[nH]n3)cc2)CCNC1" : 0.519

Form field IC50, entry NS(=O)(=O)c1c(C(F)(F)F)ccc(N2CC3C(CO)C3C2)c1-c1nnn[nH]1 (centres unmarked) : 5.26

* * *

This listing pairs compounds with measured pIC50.
Target: VIM-1 (Pseudomonas aeruginosa (strain ATCC 15692 / DSM 22644 / CIP 104116 / JCM 14847 / LMG 12228 / 1C / PRS 101 / PAO1))
Test: Enzyme activity: determination of IC50, fluorescence assay with CCF2-FA substrate (VIM-1)
Assay type: biochemical
Details: VIM-1 enzyme, CCF2-FA substrate; read-out: VIM-1 IC50
# pIC50: negative log10 of molar concentration; output just the value

Here are 4 compounds together with their reported answers.
>>> recorded_measurement("NC(=O)CCc1ccc(-c2cccc3sc(N)nc23)c(-c2nn[nH]n2)c1S(N)(=O)=O")
8.73
>>> recorded_measurement("NS(=O)(=O)c1c(C(F)(F)F)ccc(N2CCC(CCO)CC2)c1-c1nnn[nH]1")
9.66
>>> recorded_measurement("Cc1nc(N)ccc1-c1ccc(C(F)(F)F)c(S(N)(=O)=O)c1-c1nn[nH]n1")
9.75
>>> recorded_measurement("NS(=O)(=O)c1c(C(F)(F)F)ccc(-c2cccc3c2ccc[n+]3[O-])c1-c1nn[nH]n1")
9.86

// switching to the query compound
Form field pIC50, entry "NS(=O)(=O)c1c(C(F)(F)F)ccc(-c2ccc(C3CCN(CC4CCNCC4)CC3)cc2)c1-c1nnn[nH]1" : 8.15
